test: Inhibition of 6His-tagged wildtype KRAS (1 to 169 residues)/GST-tagged GMPPNP-bound BRAF RBD (155 to 229 reisudes)/Cyclophilin A (unknown origin) tri-complex protein-protein interaction incubated for 3 hrs by TR-FERT based disruption assay
Set-up: species or system Homo sapiens
quantity.name: IC50 (nM)
Your answer should be a plain number; it is taken to be in nM.

# input molecule: CCn1c(-c2cc(N3CCN(C4CC4)CC3)cnc2[C@H](C)OC)c2c3cc(ccc31)-c1csc(n1)C[C@H](NC(=O)[C@H]1C[C@@H]1C)C(=O)N1CCC[C@H](N1)C(=O)OCC(C)(C)C2 ; wanted: its IC50
117

Repeat for the following molecule: CCn1c(-c2cc(N3CCN(C4COC4)CC3)cnc2[C@H](C)OC)c2c3cc(ccc31)-c1csc(n1)C[C@H](NC(=O)[C@H]1C[C@@H]1C)C(=O)N1CCC[C@H](N1)C(=O)OCC(C)(C)C2
103

Repeat for the following molecule: CCn1c(-c2cc(N3CCN(C4CC4)CC3)cnc2[C@H](C)OC)c2c3cc(ccc31)-c1csc(n1)C[C@H](NC(=O)[C@H]1[C@@H]3COC[C@@H]31)C(=O)N1CCC[C@H](N1)C(=O)OCC(C)(C)C2
76

Repeat for the following molecule: CCn1c(-c2cc(N3CC4CC(C3)N4C)cnc2[C@H](C)OC)c2c3cc(ccc31)-c1csc(n1)C[C@H](NC(=O)[C@H]1C[C@@H]1C)C(=O)N1CCC[C@H](N1)C(=O)OCC(C)(C)C2
116

Repeat for the following molecule: CCn1c(-c2cc(N3CCN(C)CC3)cnc2[C@H](C)OC)c2c3cc(ccc31)-c1csc(n1)C[C@H](NC(=O)[C@H]1C[C@@H]1C)C(=O)N1CCC[C@H](N1)C(=O)OCC(C)(C)C2
92

Repeat for the following molecule: CCn1c(-c2cc(N3CCN(C)CC3)cnc2[C@H](C)OC)c2c3cc(ccc31)-c1csc(n1)C[C@H](NC(=O)[C@H]1CCO1)C(=O)N1CCC[C@H](N1)C(=O)OCC(C)(C)C2
138

Repeat for the following molecule: CCn1c(-c2cccnc2[C@H](C)OC)c2c3cc(ccc31)-c1csc(n1)C[C@H](NC(=O)[C@H](C(C)C)N(C)C(=O)N1CCC1)C(=O)N1CCC[C@H](N1)C(=O)OCC(C)(C)C2
107

All figures here come from ChEMBL document CHEMBL6115029.
